testSystem: T1, cynomolgus monkey (Macaca fascicularis) soluble TfR1 (sCD71) (cynomolgus monkey (Macaca fascicularis), UniProt H9EXL1 89-760 (rhesus entry))
T1 construct: extracellular domain; also called cynomolgus monkey TfR1; cynomolgus monkey sCD71
T1 sequence (chain, as listed by the source): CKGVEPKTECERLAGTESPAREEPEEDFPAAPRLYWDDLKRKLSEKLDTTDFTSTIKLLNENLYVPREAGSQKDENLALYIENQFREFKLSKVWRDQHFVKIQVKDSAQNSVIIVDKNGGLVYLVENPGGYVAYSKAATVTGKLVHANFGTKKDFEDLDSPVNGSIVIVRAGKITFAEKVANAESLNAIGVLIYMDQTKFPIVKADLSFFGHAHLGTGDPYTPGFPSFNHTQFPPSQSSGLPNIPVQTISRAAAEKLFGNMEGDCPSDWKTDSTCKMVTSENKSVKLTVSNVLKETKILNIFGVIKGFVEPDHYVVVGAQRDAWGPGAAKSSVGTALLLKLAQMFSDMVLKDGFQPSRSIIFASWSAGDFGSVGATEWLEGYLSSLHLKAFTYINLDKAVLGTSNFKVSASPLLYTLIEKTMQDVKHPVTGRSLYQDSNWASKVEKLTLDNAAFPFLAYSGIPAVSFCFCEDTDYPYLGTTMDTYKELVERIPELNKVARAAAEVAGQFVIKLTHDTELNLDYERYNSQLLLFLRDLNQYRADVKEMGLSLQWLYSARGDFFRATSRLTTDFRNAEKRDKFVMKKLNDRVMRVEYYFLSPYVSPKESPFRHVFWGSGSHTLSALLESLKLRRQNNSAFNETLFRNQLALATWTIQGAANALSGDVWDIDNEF
runDescription: ELISA, plate coated with soluble cynomolgus monkey TfR1 (Sino Biological), 2-fold antibody dilutions, AP anti-human kappa detection, A405
Would you kindly list EC50 (read off the curve) for each of these binders?

Report EC50 (read off the curve) for H6L9 (antibody, human IgG1, V domains shown, humanized; also called hu128.1) VH: EVQLVQSGAEVKKPGESLKISCKGSGYSFTGYTMNWVRQMPGKGLEWMGRINPHNGGTDYNQKFKDQVTISADKSISTAYLQWSSLKASDTAMYYCARGYYYYSLDYWGQGTLVTVSS VL: EIVLTQSPATLSLSPGERATLSCSASSSIRYIHWYQQKPGQAPRRWIYDTSNLASGTPARFSGSGSGTDFTLTISSLEPEDFAVYYCHQRNSYPWTFGQGTKVEIK please. ~0.03 µg/mL

What about H8L10 (antibody, human IgG1, V domains shown, humanized; also called hu128.1) VH: QVQLVESGGGVVQPGRSLRLSCAASGYSFTGYTMNWVRQAPGNGLEWVARINPHNGGTDYNQKFKDRFTISRDNSKNTLYLQMNSLRAEDTAVYYCARGYYYYSLDYWGQGTTVTVSS VL: EIVLTQSPDFQSVTPKEKVTITCSASSSIRYIHWYQQRPDQSPKRWIYDTSNLASGVPSRFSGSGSGTDFTLTINSLEAEDAATYYCHQRNSYPWTFGQGTKVEIK ? ~0.04 µg/mL

What about H8L9 (antibody, human IgG1, V domains shown, humanized; also called hu128.1) VH: QVQLVESGGGVVQPGRSLRLSCAASGYSFTGYTMNWVRQAPGNGLEWVARINPHNGGTDYNQKFKDRFTISRDNSKNTLYLQMNSLRAEDTAVYYCARGYYYYSLDYWGQGTTVTVSS VL: EIVLTQSPATLSLSPGERATLSCSASSSIRYIHWYQQKPGQAPRRWIYDTSNLASGTPARFSGSGSGTDFTLTISSLEPEDFAVYYCHQRNSYPWTFGQGTKVEIK ? ~0.04 µg/mL

What about ch128.1 (antibody, human IgG1, V domains shown, mouse 128.1 V regions; also called chimeric antibody; parental chimeric antibody) VH: EVQLQQSGPELVKPGASMKISCKASGYSFTGYTMNWVKQSHGENLEWIGRINPHNGGTDYNQKFKDKAPLTVDKSSNTAYMELLSLTSGDSAVYYCARGYYYYSLDYWGQGTSVTVSS VL: QIVLTQSPAIMSVSPGEKVTMTCSASSSIRYIHWYQQRPGTSPKRWIYDTSNLASGVPARFSGSGSGTSYSLTISSMEAEDAATYYCHQRNSYPWTFGGGTRLEIR ? ~0.03 µg/mL

What about H6L7 (antibody, human IgG1, V domains shown, humanized; also called hu128.1) VH: EVQLVQSGAEVKKPGESLKISCKGSGYSFTGYTMNWVRQMPGKGLEWMGRINPHNGGTDYNQKFKDQVTISADKSISTAYLQWSSLKASDTAMYYCARGYYYYSLDYWGQGTLVTVSS VL: EIVLTQSPATLSLSPGERATLSCSASSSIRYIHWYQQKPGQAPRRWIYDTSNLASGTPARFSGSGSGTSYSLTISSLEPEDFAVYYCHQRNSYPWTFGQGTKVEIK ? ~0.03 µg/mL
